target_or_test_system: Gamma-butyrobetaine dioxygenase (Homo sapiens, UniProt O75936)
Sequence (O75936 whole entry): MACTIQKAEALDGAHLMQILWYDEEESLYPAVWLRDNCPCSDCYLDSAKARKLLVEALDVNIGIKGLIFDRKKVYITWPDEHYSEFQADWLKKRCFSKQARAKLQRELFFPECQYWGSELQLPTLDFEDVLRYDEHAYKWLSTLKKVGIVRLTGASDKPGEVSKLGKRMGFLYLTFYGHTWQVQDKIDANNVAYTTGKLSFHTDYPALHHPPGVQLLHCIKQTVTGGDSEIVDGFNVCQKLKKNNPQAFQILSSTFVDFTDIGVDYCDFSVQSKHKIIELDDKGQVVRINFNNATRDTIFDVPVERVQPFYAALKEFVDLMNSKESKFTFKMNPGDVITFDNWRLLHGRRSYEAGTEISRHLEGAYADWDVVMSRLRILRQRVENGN
test_method_notes: Binding affinity to human BBOX by tryptophan fluorescence quenching binding assay
observed_property: log10 of Kd (log10 of the value in µM)
Base-10 log of Kd, unit µM.

Known results for compounds:
> print(dat)
                        smiles.code  result.number
1  O=C(O)CNC(=O)c1nc(Cl)c2ccccc2c1O           2.09
2       O=c1c2ccccc2[se]n1-c1ccccc1           0.56
3                 O=[Se](O)c1ccccc1           0.88

Qu. State log10 of Kd on Gamma-butyrobetaine dioxygenase (Homo sapiens, UniProt O75936). Entry: `CN(C)C(=S)SSC(=S)N(C)C`
Ans. 1.77

Qu. State log10 of Kd on Gamma-butyrobetaine dioxygenase (Homo sapiens, UniProt O75936). Entry: `Cl[Se]c1ccccc1`
Ans. 0.97

Qu. State log10 of Kd on Gamma-butyrobetaine dioxygenase (Homo sapiens, UniProt O75936). Entry: `Br[Se]c1ccccc1`
Ans. 1.11
